Every entry's value here was drawn from patent US20030064915A1.

Target: HLA-DR2 molecules (Homo sapiens, UniProt P01903+P01911)
Construct: Soluble HLA-DR2 molecules were expressed in Drosophila S2 cells and purified as described; made in house; host or cells: Drosophila S2 cells
Test: Competitive binding assay: inhibition of biotinylated MBP 85-99 binding to HLA-DR2 molecules
Details: biotinylated MBP 85-99 0.13 μM; FIGS. 1B, 3A, 4, 5A, 6A, 7
Description: Soluble HLA-DR2 molecules were expressed in Drosophila S2 cells and purified as described (Kalandadze A. et al., J. Biol. Chem. 271:20156 (1996)). […] Detection of class II MHC protein/peptide complexes was performed by measuring bound peptide-biotin, which was detected using streptavidin-conjugated alkaline phosphatase, as follows. […] The absorbance at 410 nm was monitored by a microplate reader (model MR4000; Dynatech, Chantilly, Va.).
Measure Name: Inhibition of binding of biotinylated MBP 85-99 to HLA-DR2 (in words)

INSERT INTO results (sequence_string, assay_value) VALUES
  ('APEKAKFEAFKAAAAPA (The peptide was designed and synthesized.) [#8]', 'equally effective'),
  ('APEKAKFEAYKAAAAPA (The peptide was designed and synthesized.) [#9]', 'equally effective');
